# Tested on: BDF1 mice, L1210/MTX-resistant leukemia ip, survival T/C
# RUN DESCRIPTION: NCI In Vivo Anticancer Drug Screen. Data for tumor model L1210 Leukemia resistant to Methotrexate; NSC 740 (intraperitoneal) in B6D2F1 (BDF1) mice
# CONDITION DETAILS: endpoint: mean survival time; dose: 50.0 mg/kg/injection; schedule: Q01DX Z (ip); vehicle: carboxymethylcellulose (CMC); higher = longer survival
Inconclusive results and toxic doses are left out.
MEASURED ATTRIBUTE: T/C

Just so you know, measured T/C for Cn1c(O)c(N=NC(N)=S)c2ccccc21 came out at 96 % of control

Just so you know, measured T/C for Cn1c(N)nc2nc[nH]c2c1=S came out at 119 % of control

Just so you know, measured T/C for CC(CCC(C)OS(C)(=O)=O)OS(C)(=O)=O (configuration not stated) came out at 88 % of control

Just so you know, measured T/C for Nc1nc(SCc2ccccc2)c2[nH]cnc2n1 came out at 105 % of control

Just so you know, measured T/C for N#CCSc1ncnc2nc[nH]c12 came out at 120 % of control

Just so you know, measured T/C for CC1(C)N=C(N)N=C(N)N1c1cccc(Br)c1 came out at 92 % of control

Just so you know, measured T/C for CN(C)C(=S)N=Nc1c(O)[nH]c2ccccc12 came out at 124 % of control

---

# Tested on: BDF1 mice, L1210/MTX-resistant leukemia ip, survival T/C
# RUN DESCRIPTION: NCI In Vivo Anticancer Drug Screen. Data for tumor model L1210 Leukemia resistant to Methotrexate; NSC 740 (intraperitoneal) in B6D2F1 (BDF1) mice
# CONDITION DETAILS: endpoint: mean survival time; dose: 25.0 mg/kg/injection; schedule: Q01DX Z (ip); vehicle: carboxymethylcellulose (CMC); higher = longer survival
Toxic doses and inconclusive results are not listed.
MEASURED ATTRIBUTE: T/C

Just so you know, measured T/C for O=C(O)CCCc1ccc(N(CCCl)CCCl)cc1 came out at 90 % of control

Just so you know, measured T/C for CC1(C)N=C(N)N=C(N)N1c1cccc(Br)c1 came out at 98 % of control

Just so you know, measured T/C for O=C(Nc1ccc(C2=NCCCN2)cc1)c1ccc(C(=O)Nc2ccc(C3=NCCCN3)cc2)cc1 came out at 96 % of control

Just so you know, measured T/C for CCn1cnc2c(=S)nc[nH]c21 came out at 121 % of control

Just so you know, measured T/C for Nc1nc(SCc2ccccc2)c2[nH]cnc2n1 came out at 107 % of control

Just so you know, measured T/C for N#CCSc1ncnc2nc[nH]c12 came out at 101 % of control

Just so you know, measured T/C for Cn1c(N)nc2nc[nH]c2c1=S came out at 104 % of control

---

# System: BDF1 mice, L1210/MTX-resistant leukemia ip, survival T/C
# RUN DESCRIPTION: NCI In Vivo Anticancer Drug Screen. Data for tumor model L1210 Leukemia resistant to Methotrexate; NSC 740 (intraperitoneal) in B6D2F1 (BDF1) mice
# CONDITION DETAILS: endpoint: mean survival time; dose: 25.0 mg/kg/injection; schedule: Q01DX010 (ip); vehicle: saline
Toxic doses and inconclusive results are not listed. How the source made its calls: active means survival T/C of 150% or more; inactive means T/C below 125% in these data.
Can you answer with just one of these options? active, inactive

State the result this test recorded for O=C1C(NC(=O)C2CCCCC2)=C(N2CC2)C(=O)C(NC(=O)C2CCCCC2)=C1N1CC1 .
inactive

State the result this test recorded for CCN(CC)CCNc1ccc(C)c2sc3ccccc3c(=O)c12 .
active

State the result this test recorded for CS(=O)(=O)OCCCCOS(C)(=O)=O .
inactive

State the result this test recorded for CN(C)/N=N/c1nc[nH]c1C(N)=O .
inactive

State the result this test recorded for CC/C(=C(/CC)c1ccc(O)cc1)c1ccc(O)cc1 .
inactive

Reference source for all entries: PubChem BioAssay AID284
